Listed here: items and their measured RELATIVE POTENCY (inhibition of VLA-4 binding CS-1).
target: VLA-4 (Homo sapiens, UniProt P05556+P13612); construct: host or cells: Jurkat (human T lymphoblastic line); type: cell-based; conditions: relative to standard peptide SEQ ID NO:3 (=1), normalized IC50; about one-tenth or less of SEQ ID NO:3 assigned zero
Sequence (P13612 34-1032): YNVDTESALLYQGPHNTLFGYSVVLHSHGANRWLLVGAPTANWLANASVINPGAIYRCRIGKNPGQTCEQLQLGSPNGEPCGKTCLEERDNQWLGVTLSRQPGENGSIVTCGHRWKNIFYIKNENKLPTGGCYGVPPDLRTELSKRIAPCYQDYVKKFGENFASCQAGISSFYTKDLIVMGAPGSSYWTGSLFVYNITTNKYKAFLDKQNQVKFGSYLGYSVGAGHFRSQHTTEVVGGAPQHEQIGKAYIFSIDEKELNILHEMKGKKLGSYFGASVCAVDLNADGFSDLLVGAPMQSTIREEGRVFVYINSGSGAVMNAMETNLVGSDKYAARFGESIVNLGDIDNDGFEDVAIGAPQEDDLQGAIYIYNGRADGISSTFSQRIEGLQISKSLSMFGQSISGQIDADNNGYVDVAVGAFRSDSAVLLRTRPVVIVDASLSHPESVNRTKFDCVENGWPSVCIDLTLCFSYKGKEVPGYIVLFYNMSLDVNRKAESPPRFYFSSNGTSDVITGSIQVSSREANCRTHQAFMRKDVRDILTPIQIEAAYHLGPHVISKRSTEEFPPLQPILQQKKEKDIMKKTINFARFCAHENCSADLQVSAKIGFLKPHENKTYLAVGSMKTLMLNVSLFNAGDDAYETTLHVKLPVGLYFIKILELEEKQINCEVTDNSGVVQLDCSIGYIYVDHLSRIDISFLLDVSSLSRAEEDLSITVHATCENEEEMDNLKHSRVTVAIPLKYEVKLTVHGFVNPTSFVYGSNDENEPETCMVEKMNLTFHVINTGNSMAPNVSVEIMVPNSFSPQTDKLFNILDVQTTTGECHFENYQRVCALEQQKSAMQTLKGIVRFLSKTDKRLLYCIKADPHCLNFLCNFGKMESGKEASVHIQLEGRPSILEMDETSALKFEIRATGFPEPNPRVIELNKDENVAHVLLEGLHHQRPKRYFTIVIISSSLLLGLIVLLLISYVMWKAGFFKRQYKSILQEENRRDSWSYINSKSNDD
Sequence (P05556 21-798): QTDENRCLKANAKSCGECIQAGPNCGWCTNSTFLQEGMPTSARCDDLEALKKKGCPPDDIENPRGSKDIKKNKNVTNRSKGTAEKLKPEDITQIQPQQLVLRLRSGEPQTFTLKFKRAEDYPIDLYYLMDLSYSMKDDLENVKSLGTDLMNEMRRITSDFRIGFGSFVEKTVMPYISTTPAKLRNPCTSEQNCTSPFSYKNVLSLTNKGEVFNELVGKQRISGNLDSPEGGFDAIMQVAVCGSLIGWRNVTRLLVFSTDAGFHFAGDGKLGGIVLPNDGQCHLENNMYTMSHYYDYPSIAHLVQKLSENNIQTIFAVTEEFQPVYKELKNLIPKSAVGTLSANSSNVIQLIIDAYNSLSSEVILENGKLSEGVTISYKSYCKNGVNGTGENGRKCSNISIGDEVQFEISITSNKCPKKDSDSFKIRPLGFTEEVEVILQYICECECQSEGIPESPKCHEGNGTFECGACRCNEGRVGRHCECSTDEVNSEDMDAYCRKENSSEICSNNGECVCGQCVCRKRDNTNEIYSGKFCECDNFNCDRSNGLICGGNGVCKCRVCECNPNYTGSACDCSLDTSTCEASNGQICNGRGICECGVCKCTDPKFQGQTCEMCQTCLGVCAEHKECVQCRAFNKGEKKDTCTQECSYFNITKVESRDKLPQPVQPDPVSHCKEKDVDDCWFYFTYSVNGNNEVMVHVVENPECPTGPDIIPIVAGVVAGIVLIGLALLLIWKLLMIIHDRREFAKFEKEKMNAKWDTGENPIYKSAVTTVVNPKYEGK
Square brackets hold non-standard residues; d marks the D form. Peptide text beside a SMILES is read from it. * marks the point of attachment. Phg = N[C@H](C(=O)O)c1ccccc1; Morpholide = C1CN(*)CCO1; Nle = CCCC[C@H](N)C(=O)O; PhAc = O=C(Cc1ccccc1)*; Inp = O=C(O)C1CCNCC1; Bz = O=C(c1ccccc1)*
reported-metric: RELATIVE POTENCY (inhibition of VLA-4 binding CS-1)

compound	target-under-test	endpoint-value
CC(C)C[C@H](NC(=O)Cc1ccccc1)C(=O)N[C@@H](CC(=O)O)C(=O)NC1CCCCN(CC(N)=O)C1=O (some centres unmarked)	VLA-4 (Homo sapiens, UniProt P05556+P13612)	97
CC(C)C[C@H](NC(=O)Cc1ccccc1)C(=O)N[C@@H](CC(=O)O)C(=O)N[C@H](C(=O)N1CCC[C@@H]1C(N)=O)C(C)C [X L D V p phenylacetyl amide]	VLA-4 (Homo sapiens, UniProt P05556+P13612)	106
CC(C)C[C@H](NC(=O)Cc1ccccc1)C(=O)N[C@@H](CC(=O)O)C(=O)NC1CCCCNC1=O (some centres unmarked)	VLA-4 (Homo sapiens, UniProt P05556+P13612)	27
CC(C)C[C@H](NC(=O)Cc1ccccc1)C(=O)N[C@@H](CC(=O)O)C(=O)N[C@@H](Cc1ccccc1)C(=O)N1CCS(=O)(=O)CC1	VLA-4 (Homo sapiens, UniProt P05556+P13612)	1060
CC(C)C[C@H](NC(=O)Cc1ccccc1)C(=O)N[C@@H](CC(=O)O)C(=O)N[C@@H](CC(C)C)C(=O)N1CCOCC1 [X L D L Z phenylacetyl morpholinamide] (PhAc-Leu-Asp-Leu-Morpholide)	VLA-4 (Homo sapiens, UniProt P05556+P13612)	291
CC(C)C[C@H](NC(=O)Cc1ccccc1)C(=O)N[C@@H](CC(=O)O)C(=O)N[C@@H](Cc1ccccc1)C(=O)N1CCNCC1 [X L D F Z phenylacetyl piperazinamide]	VLA-4 (Homo sapiens, UniProt P05556+P13612)	506
CC(C)C[C@H](NC(=O)Cc1ccccc1)C(=O)N[C@@H](CC(=O)O)C(=O)N[C@@H](Cc1ccccc1)C(=O)N1CCC(C(N)=O)CC1 (PhAc-LDF[Inp]-NH2)	VLA-4 (Homo sapiens, UniProt P05556+P13612)	933
CC(C)C[C@H](NC(=O)c1ccccc1)C(=O)N[C@@H](CC(=O)O)C(=O)N[C@@H](Cc1ccccc1)C(=O)N1CCC[C@@H]1C(N)=O [X L D F p benzoyl amide] (Bz-LDF[dP]-NH2)	VLA-4 (Homo sapiens, UniProt P05556+P13612)	75
CC(C)C[C@H](NC(=O)Cc1ccccc1)C(=O)N[C@@H](CC(=O)O)C(=O)N[C@@H](Cc1ccccc1)C(=O)N1CCC[C@@H]1C(N)=O [X L D F p phenylacetyl amide] (PhAc-LDF[dP]-NH2)	VLA-4 (Homo sapiens, UniProt P05556+P13612)	313
CC(C)C[C@H](NC(=O)Cc1ccccc1)C(=O)N[C@@H](CC(=O)O)C(=O)NCC(=O)N1CCOCC1 [X L D G Z phenylacetyl morpholinamide] (PhAc-Leu-Asp-Gly-Morpholide)	VLA-4 (Homo sapiens, UniProt P05556+P13612)	9
CC(C)C[C@H](NC(=O)Cc1ccccc1)C(=O)N[C@@H](CC(=O)O)C(=O)N[C@@H](Cc1ccccc1)C(=O)N1CCSCC1	VLA-4 (Homo sapiens, UniProt P05556+P13612)	493
CC(C)C[C@H](NC(=O)Cc1ccccc1)C(=O)N[C@@H](CC(=O)O)C(=O)N[C@H](C(=O)N1CCC[C@@H]1C(N)=O)c1ccccc1 (PhAc-LD[Phg][dP]-NH2)	VLA-4 (Homo sapiens, UniProt P05556+P13612)	61
CC(C)C[C@H](NC(=O)Cc1ccccc1)C(=O)N[C@@H](CC(=O)O)C(=O)N[C@@H](Cc1ccccc1)C(=O)N1CCN(CC(N)=O)CC1	VLA-4 (Homo sapiens, UniProt P05556+P13612)	319
CC(C)C[C@H](NC(=O)Cc1ccccc1)C(=O)N[C@@H](CC(=O)O)C(=O)N[C@@H](Cc1ccccc1)C(=O)N1CCOCC1 [X L D F Z phenylacetyl morpholinamide] (PhAc-Leu-Asp-Phe-Morpholide)	VLA-4 (Homo sapiens, UniProt P05556+P13612)	844
CC(C)C[C@H](NC(=O)Cc1ccccc1)C(=O)N[C@@H](CC(=O)O)C(=O)N[C@@H](Cc1ccccc1)C(=O)N1CCCC1CO (some centres unmarked)	VLA-4 (Homo sapiens, UniProt P05556+P13612)	184
CC(C)C[C@H](NC(=O)Cc1ccccc1)C(=O)N[C@@H](CC(=O)O)C(=O)NC1Cc2ccccc2NC1=O (some centres unmarked)	VLA-4 (Homo sapiens, UniProt P05556+P13612)	31
CC(C)C[C@H](NC(=O)c1ccccc1)C(=O)N[C@@H](CC(=O)O)C(=O)N[C@H](C(=O)N1CCC[C@H]1C(N)=O)C(C)C [X L D V P benzoyl amide]	VLA-4 (Homo sapiens, UniProt P05556+P13612)	37
CC(C)C[C@H](NC(=O)Cc1ccccc1)C(=O)N[C@@H](CC(=O)O)C(=O)N[C@@H](CO)C(=O)N1CCC[C@@H]1C(N)=O [X L D S p phenylacetyl amide] (PhAc-LDS[dP]-NH2)	VLA-4 (Homo sapiens, UniProt P05556+P13612)	17
CC(C)C[C@H](NC(=O)Cc1ccccc1)C(=O)N[C@@H](CC(=O)O)C(=O)N[C@@H]1CCCCNC1=O	VLA-4 (Homo sapiens, UniProt P05556+P13612)	17
CC(C)C[C@H](NC(=O)Cc1ccccc1)C(=O)N[C@@H](CC(=O)O)C(=O)NN(Cc1ccccc1)C(=O)C1CCCC1	VLA-4 (Homo sapiens, UniProt P05556+P13612)	1
CC(C)C[C@H](NC(=O)Cc1ccccc1)C(=O)N[C@@H](CC(=O)O)C(=O)NN(Cc1ccccc1)Cc1ccccc1	VLA-4 (Homo sapiens, UniProt P05556+P13612)	0
CCCC[C@H](NC(=O)Cc1ccccc1)C(=O)N[C@@H](CC(=O)O)C(=O)N[C@@H](Cc1ccccc1)C(=O)N1CCC[C@@H]1C(N)=O [X K D F p phenylacetyl amide J = Nle] (PhAc-[Nle]DF[dP]-NH2)	VLA-4 (Homo sapiens, UniProt P05556+P13612)	49
CC(C)C[C@H](NC(=O)Cc1ccccc1)C(=O)N[C@@H](CC(=O)O)C(=O)NC1Cc2ccccc2N(CCN2CCOCC2)C1=O (some centres unmarked)	VLA-4 (Homo sapiens, UniProt P05556+P13612)	20
